Source: PubChem BioAssay (NCI)

System: PC-3 prostate
Assay: NCI tumour cell line growth inhibition, 48 h
# TGI per record follows

[
  {
    "MOLECULE": "COc1cc(-c2nn(-c3ccc(NC(=O)c4ccc(Cl)c(Cl)c4)cc3)cc2-c2ccncc2)ccc1Cl",
    "TGI": "> 100 µM"
  },
  {
    "MOLECULE": "CCOC(=O)c1ccc(NC(=O)N2CC(C)OC(C)C2)cc1 (centres undefined)",
    "TGI": "> 100 µM"
  },
  {
    "MOLECULE": "NCCC(N)C(=O)O (centres undefined)",
    "TGI": "> 100 µM"
  }
]

Continue with the next molecule.
QUERY: Specify reported TGI for the molecule shown: CS(=O)(=O)CCNCc1nc(-c2ccc3ncnc(Nc4ccc(F)c(Cl)c4)c3c2)cs1
RESULT: > 25 µM
